Readings of kmonoanion for the listed compounds
test: Oxidation of boronic acids by hydrogen peroxide, continuous UV-absorbance assay; assay type: physicochemical; conditions: experimental; second-order rate constant for oxidation of monoanionic tetrahedral state

| compound | unit_info | kmonoanion |
| --- | --- | --- |
| O=C(O)Cc1ccccc1B(O)O | M⁻¹ s⁻¹ | 0.041 |
| O=C(O)c1ccccc1B(O)O | M⁻¹ s⁻¹ | 0.00016 |
| OB(O)c1ccccc1 | M⁻¹ s⁻¹ | 46 |
| OCc1ccccc1B(O)O [Compound 2-HMPBA, (2-hydroxymethyl)phenylboronic acid] | M⁻¹ s⁻¹ | 4.8 |
